- Test system: C. trachomatis
- assayProcedure: In vitro susceptibility testing of C. trachomatis in cell culture using HEp-2 cells (MIC/MBC)
- Assay type: cell-based, Chlamydia trachomatis
- conditionLabel: 10 strains
Recorded MIC Range, one value per entry.

Observe how each entry below is paired with its result.
{"columns": ["compound", "testedOn", "MIC Range"],
 "data": [
  ["CC[C@H]1OC(=O)[C@H](C)C(=O)[C@H](C)[C@@H](O[C@@H]2O[C@H](C)C[C@H](N(C)C)[C@H]2O)[C@](C)(OC)C[C@@H](C)C(=O)[C@H](C)[C@H]2N(CCCCn3cnc(-c4cccnc4)c3)C(=O)O[C@]12C [Telithromycin, telithromycin]", "C. trachomatis", "0.015 to 0.25 µg/mL"],
  ["C[C@H]1c2cccc(O)c2C(=O)C2=C(O)[C@]3(O)C(=O)C(C(N)=O)=C(O)[C@@H](N(C)C)[C@@H]3[C@@H](O)[C@@H]21 [Doxycycline, doxycycline]", "C. trachomatis", "0.015 to 0.06 µg/mL"],
  ["CC[C@H]1OC(=O)[C@H](C)[C@@H](O[C@H]2C[C@@](C)(OC)[C@@H](O)[C@H](C)O2)[C@H](C)[C@@H](O[C@@H]2O[C@H](C)C[C@H](N(C)C)[C@H]2O)[C@](C)(OC)C[C@@H](C)C(=O)[C@H](C)[C@@H](O)[C@]1(C)O [Clarithromycin, clarithromycin]", "C. trachomatis", "0.015 to 0.12 µg/mL"],
  ["CC[C@H]1OC(=O)[C@H](C)[C@@H](O[C@H]2C[C@@](C)(OC)[C@@H](O)[C@H](C)O2)[C@H](C)[C@@H](O[C@@H]2O[C@H](C)C[C@H](N(C)C)[C@H]2O)[C@](C)(O)C[C@@H](C)CN(C)[C@H](C)[C@@H](O)[C@]1(C)O [Azithromycin, azithromycin]", "C. trachomatis", "0.015 to 0.12 µg/mL"]
]}

Next compound, please.
Would you kindly share the measured MIC Range for CC(=O)O[C@H]1C[C@@]2(C)[C@@H](C[C@@H](O)[C@H]3[C@@]4(C)CC[C@@H](O)[C@@H](C)[C@@H]4CC[C@@]32C)/C1=C(\CCC=C(C)C)C(=O)O [Fusidic acid] ? 0.12 to 0.5 µg/mL

These entries and their values trace back to patent US8247394B2.
